Origin of measurements: ChEMBL document CHEMBL5113392

- System: A549
- method-description: Anticancer activity against human A549 cells assessed as cell growth inhibition incubated for 72 hrs by MTT assay
- Format: functional
assay-metric: GI50

>  <compound>
O=C1Nc2ccccc2/C1=C1/SC(=S)N(C2CC(=O)N(c3ccc(Cl)cc3)C2=O)C1=O (stereo not given)

>  <tested-target>
A549

>  <GI50>
> 100 µM

$$$$
>  <compound>
O=C1CC(N2C(=O)CSC2=S)C(=O)N1c1ccc(O)cc1 (stereo not given)

>  <tested-target>
A549

>  <GI50>
> 100 µM

$$$$
>  <compound>
O=C1Nc2ccc(Cl)cc2/C1=C1/SC(=S)N(C2CC(=O)N(c3ccc(Cl)cc3)C2=O)C1=O (stereo not given)

>  <tested-target>
A549

>  <GI50>
> 100 µM

$$$$
>  <compound>
O=C1CC(N2C(=O)CSC2=S)C(=O)N1c1ccc(Cl)cc1 (stereo not given)

>  <tested-target>
A549

>  <GI50>
> 100 µM

$$$$

IN: State the recorded GI50 for this entry: C=CCOc1ccccc1/C=C1\SC(=S)N(C2CC(=O)N(c3ccc(Cl)cc3)C2=O)C1=O (stereo not given)
OUT: > 100 µM

IN: State the recorded GI50 for this entry: O=C1Nc2ccccc2/C1=C1/SC(=S)N(C2CC(=O)N(c3ccc(Br)cc3)C2=O)C1=O (stereo not given)
OUT: > 100 µM

IN: State the recorded GI50 for this entry: O=C1CC(N2C(=O)/C(=C/C(Cl)=C/c3ccc([N+](=O)[O-])cc3)SC2=S)C(=O)N1c1ccc(O)cc1 (stereo not given)
OUT: 7.25 µM

====

- System: Jurkat
- method-description: Anticancer activity against human Jurkat cells assessed as cell growth inhibition incubated for 72 hrs by MTT assay
- Assay type: functional
Consider the cut-off 20 µM. If the recorded GI50 is strictly smaller, the label is fulfilled; if not, the label is not fulfilled.

Please review the following examples before continuing.
>  <molecule>
O=C1Nc2ccccc2/C1=C1/SC(=S)N(C2CC(=O)N(c3ccc(Cl)cc3)C2=O)C1=O (stereo unspecified)

>  <class-name>
not fulfilled

$$$$
>  <molecule>
O=C1Nc2ccc(Cl)cc2/C1=C1/SC(=S)N(C2CC(=O)N(c3ccc(Cl)cc3)C2=O)C1=O (stereo unspecified)

>  <class-name>
fulfilled

$$$$
>  <molecule>
C=CCOc1ccccc1/C=C1\SC(=S)N(C2CC(=O)N(c3ccc(Cl)cc3)C2=O)C1=O (stereo unspecified)

>  <class-name>
not fulfilled

$$$$

IN: Is it true that GI50 reported for O=C1Nc2ccccc2/C1=C1/SC(=S)N(C2CC(=O)N(c3ccc(Br)cc3)C2=O)C1=O (stereo unspecified) is less than 20 µM?
OUT: not fulfilled

IN: Is it true that GI50 reported for O=C1CC(N2C(=O)CSC2=S)C(=O)N1c1ccc(Cl)cc1 (stereo unspecified) is less than 20 µM?
OUT: not fulfilled

IN: Is it true that GI50 reported for O=C1CC(N2C(=O)CSC2=S)C(=O)N1c1ccc(O)cc1 (stereo unspecified) is less than 20 µM?
OUT: not fulfilled

====

- method-description: Selectivity index, ratio of GI50 for human HaCaT cells to GI50 for human MCF7 cells
- Assay type: toxicity
- conditions: HaCaT cells versus MCF7 cells, read-out: RatioGI50
Entries and their selectivity ratio values follow.
Please respond with just the number, no unit label.

IN: State the recorded selectivity ratio for this entry: C=CCOc1ccccc1/C=C1\SC(=S)N(C2CC(=O)N(c3ccc(Cl)cc3)C2=O)C1=O (centres undefined)
OUT: 1.25

IN: State the recorded selectivity ratio for this entry: O=C1CC(N2C(=O)/C(=C/C(Cl)=C/c3ccc([N+](=O)[O-])cc3)SC2=S)C(=O)N1c1ccc(Cl)cc1 (centres undefined)
OUT: 12.6

IN: State the recorded selectivity ratio for this entry: O=C1Nc2ccc(Cl)cc2/C1=C1/SC(=S)N(C2CC(=O)N(c3ccc(Cl)cc3)C2=O)C1=O (centres undefined)
OUT: 1

IN: State the recorded selectivity ratio for this entry: C=CCOc1cccc(/C=C2\SC(=S)N(C3CC(=O)N(c4ccc(Cl)cc4)C3=O)C2=O)c1 (centres undefined)
OUT: 1.02

IN: State the recorded selectivity ratio for this entry: O=C1CC(N2C(=O)/C(=C/C(Cl)=C/c3ccc([N+](=O)[O-])cc3)SC2=S)C(=O)N1c1ccc(O)cc1 (centres undefined)
OUT: 18.4

IN: State the recorded selectivity ratio for this entry: O=C1Nc2ccccc2/C1=C1/SC(=S)N(C2CC(=O)N(c3ccc(Br)cc3)C2=O)C1=O (centres undefined)
OUT: 1

IN: State the recorded selectivity ratio for this entry: O=C1CC(N2C(=O)CSC2=S)C(=O)N1c1ccc(Cl)cc1 (centres undefined)
OUT: 0.98

IN: State the recorded selectivity ratio for this entry: O=C1Nc2ccccc2/C1=C1/SC(=S)N(C2CC(=O)N(c3ccc(Cl)cc3)C2=O)C1=O (centres undefined)
OUT: 1

IN: State the recorded selectivity ratio for this entry: O=C1CC(N2C(=O)CSC2=S)C(=O)N1c1ccc(O)cc1 (centres undefined)
OUT: 1
